Exercise: state measured Residual AP activity with 100 nM compound plus E2 (% of E2 alone) for each of the molecules provided.
system: AP activity in ECC-1 cells; test: Alkaline phosphatase (AP) assay in ECC-1 uterine cells co-treated with 500 pM E2, antagonist mode; type: cell-based, human; details: 100 nM dose, mean of n experiments
The response must be a number in % E2 with no trailing unit.

Tested on AP activity in ECC-1 cells: C[C@@H]1Cc2c([nH]c3ccccc23)[C@@H](c2c(F)cc(OCCN3CC(CF)C3)cc2F)N1CC(C)(C)F [Compound D, reference compound] . Observed Residual AP activity with 100 nM compound plus E2 (% of E2 alone): 3.98

Tested on AP activity in ECC-1 cells: C[C@]12CC[C@@H]3c4ccc(O)cc4C[C@@H](CCCCCCCCC[S+]([O-])CCCC(F)(F)C(F)(F)F)[C@H]3[C@@H]1CC[C@@H]2O (some centres unmarked) [Fulvestrant, reference compound] . Observed Residual AP activity with 100 nM compound plus E2 (% of E2 alone): −0.09

Tested on AP activity in ECC-1 cells: CCCN1CC(Oc2cc(F)c([C@@H]3c4[nH]c5ccccc5c4C[C@@H](C)N3CC(C)(C)F)c(F)c2)C1 [Goodacre Compound 107, reference compound] . Observed Residual AP activity with 100 nM compound plus E2 (% of E2 alone): 1.03

Tested on AP activity in ECC-1 cells: `CCCN1CC(Oc2ccc([C@@H]3c4[nH]c5ccccc5c4C[C@@H](C)N3CC(C)(C)F)cc2)C1` . Observed Residual AP activity with 100 nM compound plus E2 (% of E2 alone): 1.56

Tested on AP activity in ECC-1 cells: `C[C@@H]1Cc2c([nH]c3ccccc23)[C@@H](c2ccc(OCCN3CC(CF)C3)cc2)N1CC(C)(C)F` . Observed Residual AP activity with 100 nM compound plus E2 (% of E2 alone): 1.76

Sourced from patent US20240131013A1
